test target: Recombinant human his-tagged IGF R extracellular domain protein (human) (UniProt P08069)
method: SPR, Ab captured via anti-huIgG Fc, dissociation at pH 6
measurement name: kon (M⁻¹ s⁻¹)
# unit: M⁻¹ s⁻¹ | format: bare number

Some binders with recorded kon:
binder="VRDN-02008 (antibody, V domains shown) VH: QVQLQESGPGLVKPSETLSLTCTVSGYSITGGHLWNWIRQPPGKGLEWIGYISYDGTNNYKPSLKDRVTISRDTSKNQFSLKLSSVTAADTAVYYCARYGRVFFDYWGQGTLVTVSS VL: DIVMTQSPLSLPVTPGEPASISCRSSQSIVHSNGNTYLQWYLQKPGQSPQLLIYKVSNRLYGVPDRFSGSGSGTDFTLKISRVEAEDVGVYYCFQGSHVPWTFGQGTKVEIK" units_text="M⁻¹ s⁻¹" observed_result=109000
binder="VRDN-02035 (antibody, V domains shown) VH: QVQLQESGPGLVKPSETLSLTCTVSGYSITGGYLWNWIRQPPGKGLEWIGYISYDGTNNYKPSLKDRVTISRDTSKNQFSLKLSSVTAADTAVYYCARYGRVFFDYWGQGTLVTVSS VL: DIVMTQSPLSLPVTPGEPASISCRSSQSIHHSNGNTYLQWYLQKPGQSPQLLIYKVSNRLYGVPDRFSGSGSGTDFTLKISRVEAEDVGVYYCFQGSHVPWTFGQGTKVEIK" units_text="M⁻¹ s⁻¹" observed_result=87600
binder="VRDN-02054 (antibody, V domains shown) VH: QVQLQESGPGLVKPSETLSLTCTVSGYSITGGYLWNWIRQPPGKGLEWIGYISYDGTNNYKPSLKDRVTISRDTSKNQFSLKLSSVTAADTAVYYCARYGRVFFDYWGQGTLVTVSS VL: DIVMTQSPLSLPVTPGEPASISCRSSQSIVHSNGNTYLQWYLQKPGQSPQLLIYKVSNRLYGVPDRFSGSGSGTDFTLKISRVEAEDVGVYYCFQGHHVPWTFGQGTKVEIK" units_text="M⁻¹ s⁻¹" observed_result=70700

Consider the additional binder presented here.
Asked: Quick one: kon for VRDN-02060 (antibody, V domains shown) VH: QVQLQESGPGLVKPSETLSLTCTVSGYSITGGYLWNWIRQPPGKGLEWIGYISYHGTNNYKPSLKDRVTISRDTSKNQFSLKLSSVTAADTAVYYCARYGRVFFDYWGQGTLVTVSS VL: DIVMTQSPLSLPVTPGEPASISCRSHQSIVHSNGNTYLQWYLQKPGQSPQLLIYKVSNRLYGVPDRFSGSGSGTDFTLKISRVEAEDVGVYYCFQGSHVPWTFGQGTKVEIK ?
Given back: 154000
